- ASSAY DETAILS: Binding affinity against sigma receptor from guinea pig brain, using [3H](+)-pentazocine as radioligand.
Hi there, I'd appreciate the recorded Ki for every entry that follows.
Kindly provide the numeric value in nM only, without the unit symbol.

Which Ki value is on record for FCCCCCN1CCN(CCc2ccc(Cl)c(Cl)c2)CC1 ?
0.52

Further, for Clc1ccc(CCN2CCN(CCCI)CC2)cc1Cl ?
1.2

###

- ASSAY DETAILS: Binding affinity against phencyclidine (PCP) receptor from guinea pig brain, using [3H]TCP as radioligand.
QUANTITY KIND: Ki
Note: a bare number is incomplete; add the unit.

Which Ki value is on record for CCCCCN1CC[C@@]2(C)c3cc(O)ccc3CC1[C@H]2C ?
9.04 µM

###

Hi there, I'd appreciate the recorded pKi for every entry that follows.
- ASSAY DETAILS: Binding affinity against sigma receptor from guinea pig brain, using [3H](+)-3-PPP as radioligand.
Worth noting: pKi values are minus log10 of concentrations stated in mol/L.

Which pKi value is on record for FCCCCCN1CCN(CCc2ccc(Cl)c(Cl)c2)CC1 ?
9.07

Further, for FCCCN(CCc1ccc(Cl)c(Cl)c1)CCN1CCCC1 ?
8.37

Further, for Clc1ccc(CCN2CCN(CCCI)CC2)cc1Cl ?
8.89

###

- TGT: Sigma non-opioid intracellular receptor 1 (Cavia porcellus)
- ASSAY DETAILS: Binding affinity against sigma receptor from guinea pig brain, using [3H](+)-pentazocine as radioligand.
QUANTITY KIND: Ki
Note: a bare number is incomplete; add the unit.

Which Ki value is on record for FCCCN1CCN(CCc2ccc(Cl)c(Cl)c2)CC1 ?
390 pM
